Assay: Solubility measurement of saturated solutions by HPLC at room temperature (0 h and 24 h)
Format: physicochemical
Conditions: buffered water with excipients, pH 4, aqueous with cosolvent or surfactant or cyclodextrin, thermodynamic from solid, ASBS (aspartate) 30 mM pH 4.0, NaCl 3 mg/mL; SBE-beta-CD 40 mg/mL; 0 h; pH exp 4.0
measured-metric: solubility at 0 h

> print(dat)
                         chemical.structure    measured.metric  measurement
1  COc1cc(N2CCNCC2)ccc1Nc1ncc2c(n1)-n1ccc(C(=O)Nc3c(C)cccc3C)c1CC2  solubility at 0 h   2880 µg/mL

* * *

Test: Solubility measurement of saturated solutions by HPLC at room temperature (0 h and 24 h)
Type: physicochemical
Conditions: buffered water with excipients, pH 7, aqueous with cosolvent or surfactant or cyclodextrin, thermodynamic from solid, CBS 30 mM pH 7.0, NaCl 3 mg/mL; SBE-beta-CD 40 mg/mL; 24 h; pH exp 7.0
measured-metric: solubility at 24 h (µg/mL)

> print(dat)
                         chemical.structure     measured.metric  unit.of.measurement  measurement
1  COc1cc(N2CCNCC2)ccc1Nc1ncc2c(n1)-n1ccc(C(=O)Nc3c(C)cccc3C)c1CC2  solubility at 24 h                µg/mL         2230
